Source of measurements: PubChem BioAssay (EPA / NIEHS)

- Read-out: Cytochrome P450 3A4 (Homo sapiens) (UniProt P08684)
- Sequence (P08684 whole entry, looked up): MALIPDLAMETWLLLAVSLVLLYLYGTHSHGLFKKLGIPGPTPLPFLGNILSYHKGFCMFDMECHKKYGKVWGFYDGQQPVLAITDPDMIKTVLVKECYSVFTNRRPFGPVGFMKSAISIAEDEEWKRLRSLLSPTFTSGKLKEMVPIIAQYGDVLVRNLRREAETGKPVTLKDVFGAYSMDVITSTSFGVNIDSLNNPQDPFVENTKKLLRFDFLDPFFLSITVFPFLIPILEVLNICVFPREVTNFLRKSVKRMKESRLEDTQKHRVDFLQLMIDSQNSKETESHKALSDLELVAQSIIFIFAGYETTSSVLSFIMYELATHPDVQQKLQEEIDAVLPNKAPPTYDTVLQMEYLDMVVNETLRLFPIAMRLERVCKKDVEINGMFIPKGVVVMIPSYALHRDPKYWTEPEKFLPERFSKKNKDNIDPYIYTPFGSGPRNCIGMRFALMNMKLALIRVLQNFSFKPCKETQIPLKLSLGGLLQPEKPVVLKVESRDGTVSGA
- procedure-summary: LTEA_HepaRG_CYP3A4: Life Technologies and Expression Analysis (LTEA) Assay for CYP3A4 using HepaRG (AID 2283487)
- study-conditions: mRNA level, 48 h; actives raise or lower the signal
- Experimental: LTEA_HepaRG is a cell based, multiplexed-readout assay that uses HepaRG, a human liver cell line, with measurements taken at 48 hours after chemical dosing on a 96-well plate.LTEA_HepaRG_CYP3A4 is one of 102 assay component(s) measured in the LTEA HepaRG cell culture assay. It is a marker of NR mediated metabolism.Data from the assay component LTEA_HepaRG_CYP3A4 was analyzed into 1 endpoint. […]
Activity calls are given as the source filed them. The calls were made as follows: active = hit-call score of the fitted dose curve at least 0.9, where 1 is the maximum; inactive = score below 0.9.
Select the correct class. Options are active, inactive and nothing else.

Consider the following illustrative entries.
molecule-smiles	assigned-category
Cc1c(C(=O)O)c(O)cc2c1C(=O)c1c(O)c([C@@H]3O[C@H](CO)[C@@H](O)[C@H](O)[C@H]3O)c(O)c(O)c1C2=O	inactive
CC(C)c1ccc(C(=O)N=C(N)N)cc1S(C)(=O)=O	active
Oc1ccc2ccccc2c1N=Nc1ccccc1	active
NCC1(Cc2noc(=O)[nH]2)CCCCC1	inactive

How did this test come out for CCc1c(C(=O)NN2CCCCC2)nn(-c2ccc(Cl)cc2Cl)c1-c1ccc(Br)cc1 ?
active
